Where do these numbers come from? They come from paper PMC6212790.

measurementTarget: GST-Rok (full length) (Bacillus subtilis subsp. subtilis str. …, UniProt O34857 1-191)
Sequence: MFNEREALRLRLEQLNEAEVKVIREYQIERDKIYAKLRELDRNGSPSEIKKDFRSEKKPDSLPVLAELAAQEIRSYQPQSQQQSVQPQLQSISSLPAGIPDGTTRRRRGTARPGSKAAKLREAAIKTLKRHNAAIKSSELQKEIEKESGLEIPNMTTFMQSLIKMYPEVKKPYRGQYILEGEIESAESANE
assayNotes: protein binding microarray; high values mean tight binding
runParameters: protein: recombinant; tags: GST (pTH5325, pDEST15-Magic modified); dsDNA, one strand shown
Whole data set: some 33,000 sequences, median “e-score” near -0.037, cut for the highest 2% near 0.34. Only a selection was taken, and the highest values are over-represented in it overall.
Catalogue of binding signal readings, one per entry.
Number in E-score, nothing else.

[
  {
    "entrySequence": "AAATAATA",
    "resultValue": 0.312
  },
  {
    "entrySequence": "CGAATCTA",
    "resultValue": 0.305
  }
]

Request the reported binding signal associated with "AGACTACA"
0.0935

Request the reported binding signal associated with "CAATAATC"
0.0735

Request the reported binding signal associated with "AGAATCTA"
0.337

Request the reported binding signal associated with "CATATAAG"
0.119

Request the reported binding signal associated with "GGAATCAA"
0.103

Request the reported binding signal associated with "AGAATCTC"
0.0678

Request the reported binding signal associated with "CAAAGTTA"
0.0253

Request the reported binding signal associated with "GGAATCTA"
0.363

Request the reported binding signal associated with "CCCGACGA"
-0.104

Request the reported binding signal associated with "TATATATA"
0.477

Request the reported binding signal associated with "CATTAATA"
0.171

Request the reported binding signal associated with "ACACTACA"
0.276

----------
measurementTarget: GST-Rok (full length) (Bacillus subtilis subsp. subtilis str. …, UniProt O34857 1-191)
Sequence: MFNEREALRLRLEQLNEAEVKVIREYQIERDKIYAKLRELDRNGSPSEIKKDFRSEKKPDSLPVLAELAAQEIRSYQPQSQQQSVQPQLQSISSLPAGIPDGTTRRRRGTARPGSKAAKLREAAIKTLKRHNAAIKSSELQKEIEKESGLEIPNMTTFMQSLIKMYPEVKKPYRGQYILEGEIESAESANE
assayNotes: protein binding microarray; Rok is a gene silencer of Bacillus subtilis; high values mean tight binding
runParameters: protein: recombinant; tags: GST (pTH5325, pDEST15-Magic modified); dsDNA, one strand shown
Over roughly 33,000 sequences, “e-score” has its median near -0.037; the highest 2% begin near 0.34. The full list was thinned out, with the highest values kept by preference.
# if value of binding signal reaches 0.1 E-score, tag fulfilled; if it stays below, tag not fulfilled

Here are 6 sequences together with their reported answers.
[
  {
    "entrySequence": "AAATATCC",
    "discreteLabel": "fulfilled"
  },
  {
    "entrySequence": "AGATATCG",
    "discreteLabel": "fulfilled"
  },
  {
    "entrySequence": "ATTCGAAG",
    "discreteLabel": "not fulfilled"
  },
  {
    "entrySequence": "CAGTAGTA",
    "discreteLabel": "fulfilled"
  },
  {
    "entrySequence": "GACTATTA",
    "discreteLabel": "fulfilled"
  },
  {
    "entrySequence": "ATAGTTTC",
    "discreteLabel": "fulfilled"
  }
]

Please tell me: is the sequence "CTCTAGCA" at or over 0.1 E-score in terms of binding signal?
not fulfilled

Please tell me: is the sequence "ACTACTTC" at or over 0.1 E-score in terms of binding signal?
fulfilled

Please tell me: is the sequence "ATCGTTTC" at or over 0.1 E-score in terms of binding signal?
fulfilled

Please tell me: is the sequence "ATTGGTGA" at or over 0.1 E-score in terms of binding signal?
not fulfilled

Please tell me: is the sequence "CTAGGTGA" at or over 0.1 E-score in terms of binding signal?
not fulfilled

Please tell me: is the sequence "ACGGTTGC" at or over 0.1 E-score in terms of binding signal?
not fulfilled

Please tell me: is the sequence "CAGGCATG" at or over 0.1 E-score in terms of binding signal?
not fulfilled

Please tell me: is the sequence "CGCGCTGA" at or over 0.1 E-score in terms of binding signal?
fulfilled

Please tell me: is the sequence "CGTACTTA" at or over 0.1 E-score in terms of binding signal?
fulfilled

Please tell me: is the sequence "ACCTAGTA" at or over 0.1 E-score in terms of binding signal?
fulfilled

Please tell me: is the sequence "ATAGACTA" at or over 0.1 E-score in terms of binding signal?
fulfilled

Please tell me: is the sequence "AAATATGA" at or over 0.1 E-score in terms of binding signal?
fulfilled

Please tell me: is the sequence "AACCGTAG" at or over 0.1 E-score in terms of binding signal?
not fulfilled

Please tell me: is the sequence "ACATAAGT" at or over 0.1 E-score in terms of binding signal?
fulfilled

Please tell me: is the sequence "ACCTATTG" at or over 0.1 E-score in terms of binding signal?
fulfilled

Please tell me: is the sequence "GCATAGGC" at or over 0.1 E-score in terms of binding signal?
not fulfilled
